# system-name: HA-hCB2 (Homo sapiens)
# Construct: gene CNR2
# Sequence (P34972 whole entry): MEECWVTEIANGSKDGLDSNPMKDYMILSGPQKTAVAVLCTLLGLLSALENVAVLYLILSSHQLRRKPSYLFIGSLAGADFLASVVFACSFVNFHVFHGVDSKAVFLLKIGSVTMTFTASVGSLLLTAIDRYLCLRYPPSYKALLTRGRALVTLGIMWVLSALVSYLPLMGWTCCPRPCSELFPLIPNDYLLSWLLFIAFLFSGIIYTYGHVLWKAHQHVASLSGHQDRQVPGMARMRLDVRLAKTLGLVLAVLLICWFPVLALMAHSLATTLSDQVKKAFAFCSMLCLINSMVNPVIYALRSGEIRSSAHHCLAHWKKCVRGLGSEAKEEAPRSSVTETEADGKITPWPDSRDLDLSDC
# assay: [3H]CP55, […] competition, membranes
# Assay type: binding
# study-conditions: read-out: Ki
parameter-measured: pKi
// pKi is dimensionless: -log10 of concentration (M)

Please look up its pKi: O=C(c1cn(CCCCCF)c2ccccc12)N1CCCCCC1 [compound 8]
6.99

Look up pKi for this compound: CCN(CC)C(=O)c1cn(CCCCCF)c2ccccc12 [compound 9]
5.99

In the following, a different compound is considered.
Given the entry O=C(c1cn(CCCCCF)c2ccccc12)N1CCCCC1 [compound 7] , report its measured pKi.
6.44

----------
# system-name: HA-hCB2 (Homo sapiens)
# Construct: gene CNR2
# assay: [3H]CP55, […] competition, membranes
# Assay type: binding
parameter-measured: Ki (nM)
Just the number please, in nM, no unit attached.

# lookup: Ki of `O=C(c1cn(CCCCCF)c2ccccc12)N1CCCC1`
1740

----------
# system-name: human CB1 (AtT20-CB1) (Homo sapiens, UniProt P21554)
# Construct: gene CNR1; full-length, stably transfected in mouse AtT20 cells
# Sequence (P21554 whole entry): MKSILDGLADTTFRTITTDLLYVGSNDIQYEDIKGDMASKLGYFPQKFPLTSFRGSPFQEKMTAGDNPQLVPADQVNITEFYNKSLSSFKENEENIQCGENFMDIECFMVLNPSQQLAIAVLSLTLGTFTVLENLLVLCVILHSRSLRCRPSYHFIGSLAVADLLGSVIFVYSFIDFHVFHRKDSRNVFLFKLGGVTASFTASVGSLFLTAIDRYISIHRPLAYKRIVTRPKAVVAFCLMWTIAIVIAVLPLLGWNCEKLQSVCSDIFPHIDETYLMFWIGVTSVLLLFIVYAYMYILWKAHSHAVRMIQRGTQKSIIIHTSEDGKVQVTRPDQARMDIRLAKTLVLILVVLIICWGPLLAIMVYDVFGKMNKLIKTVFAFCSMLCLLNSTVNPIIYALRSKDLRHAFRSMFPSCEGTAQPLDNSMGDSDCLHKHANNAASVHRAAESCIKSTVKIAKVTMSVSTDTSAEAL
# assay: cell-based
# study-conditions: read-out: % activation
parameter-measured: activity at 10 µM (%)
Reply numerically in %, unit not repeated.

Can you share its activity at 10 µM? I mean this compound: `O=C(c1cn(Cc2ccc(F)cc2)c2ccccc12)N1CCCC1`
12

For the compound shown here, `CCN(CC)C(=O)c1cn(CCCCCF)c2ccccc12` , give the reported activity at 10 µM.
0

Which activity at 10 µM value belongs to `CN(C)C(=O)c1cn(CCCCCF)c2ccccc12` ?
9

Entry `CCCCCn1cc(C(=O)N2CCCC2)c2ccccc21` has what activity at 10 µM?
1

Item under review: `CCCCn1cc(C(=O)N2CCCC2)c2ccccc21` . Reported activity at 10 µM?
16

----------
# system-name: HA-hCB1 (Homo sapiens)
# Construct: gene CNR1
# assay: [3H]SR141716A competition, membranes
# Format: binding
# study-conditions: read-out: pKi (converted)
In this section we review reported Ki values for a set of compounds.

Worked set:
So what does the record say about Ki for `CN(C)C(=O)c1cn(CCCCCF)c2ccccc12` ?
> 10 µM

I am curious: what Ki value has been reported for `CCCCCn1cc(C(=O)N2CCCC2)c2ccccc21` ?
> 10 µM

Next up:
Give its Ki value. Item: `O=C(c1cn(Cc2ccc(F)cc2)c2ccccc12)N1CCCC1`
> 10 µM

----------
# system-name: human CB2 (AtT20-CB2) (Homo sapiens, UniProt P34972)
# Construct: gene CNR2; full-length, stably transfected in mouse AtT20 cells
# assay: cell-based
# study-conditions: read-out: hCB2 Max (% CP 55,940)
Please use YES whenever Emax is not below 60%, and NO whenever it is.

Decide: is the reported value of Emax for `CCN(CC)C(=O)c1cn(CCCCCF)c2ccccc12` equal to or greater than 60%?
NO

----------
# system-name: HA-hCB1 (Homo sapiens, UniProt P21554)
# Construct: gene CNR1
# Sequence (P21554 whole entry): as the sequence (P21554 whole entry) above
# assay: [3H]SR141716A competition, membranes
# Type: binding
parameter-measured: Ki

API: value(readout= Ki, system= HA-hCB1 (Homo sapiens, UniProt P21554), query= `O=C(c1cn(CCCCCF)c2ccccc12)N1CCCC1` )
> 10 µM

----------
# system-name: human CB2 (AtT20-CB2) (Homo sapiens, UniProt P34972)
# Construct: gene CNR2; full-length, stably transfected in mouse AtT20 cells
# assay: cell-based
# study-conditions: read-out: hCB2 Max (% CP 55,940)
molecules and their reported Emax
Numbers only here, please. The scale is %.

Observe how each entry below is paired with its result.
What measured Emax goes with `O=C(c1cn(CC2CCCCC2)c2ccccc12)N1CCCC1` ?
38

Endpoint output: Emax of `O=C(c1cn(Cc2ccc(F)cc2)c2ccccc12)N1CCCC1` . Value?
38

New cases:
Consider the molecule shown here: `O=C(c1cn(CCCCCF)c2ccccc12)N1CCCC1` What is its recorded Emax?
50

----------
# system-name: human CB2 (AtT20-CB2) (Homo sapiens)
# Construct: gene CNR2; full-length, stably transfected in mouse AtT20 cells
# assay: FLIPR membrane potential assay, AtT20 cells
# Assay type: cell-based
parameter-measured: EC50 (nM)
Write the value in nM as a bare number.

Sample `O=C(c1cn(CCCCCF)c2ccccc12)N1CCCC1` — what was its EC50?
338

----------
# system-name: human CB2 (AtT20-CB2) (Homo sapiens, UniProt P34972)
# Construct: gene CNR2; full-length, stably transfected in mouse AtT20 cells
# assay: FLIPR membrane potential assay, AtT20 cells
# Format: cell-based
# study-conditions: read-out: EC50
parameter-measured: EC50 (nM)
Reply numerically in nM, unit not repeated.

# annotated cases, reported EC50 shown
Find the recorded EC50 belonging to O=C(c1cn(CCCCCF)c2ccccc12)N1CCCCC1 [compound 7] and report it.
36.3

Need EC50 of O=C(c1cn(CCCCCF)c2ccccc12)N1CCCCCC1 [compound 8] , thanks.
29

Then there is this molecule:
Look at this molecule and give its reported EC50. CCN(CC)C(=O)c1cn(CCCCCF)c2ccccc12 [compound 9]
137

----------
# system-name: human CB2 (AtT20-CB2) (Homo sapiens)
# Construct: gene CNR2; full-length, stably transfected in mouse AtT20 cells
# assay: cell-based
# study-conditions: read-out: hCB2 pEC50 (converted)
parameter-measured: EC50 (nM)
Express it in nM; write the number only.

Past entries and their recorded results:
Observed EC50 on human CB2 (AtT20-CB2) (Homo sapiens) for `O=C(c1cn(Cc2ccc(F)cc2)c2ccccc12)N1CCCC1` , please.
363

What EC50 appears in the records for this compound with human CB2 (AtT20-CB2) (Homo sapiens)? `O=C(c1cn(CC2CCCCC2)c2ccccc12)N1CCCC1`
135

Checklist item: EC50 tested on human CB2 (AtT20-CB2) (Homo sapiens), entry `CCCCCn1cc(C(=O)N2CCCC2)c2ccccc21` , value?
234

We next turn to a different compound, shown below.
So what EC50 did `CCCCn1cc(C(=O)N2CCCC2)c2ccccc21` get with human CB2 (AtT20-CB2) (Homo sapiens)?
468

----------
# system-name: HA-hCB1 (Homo sapiens)
# Construct: gene CNR1
# assay: [3H]SR141716A competition, membranes
# Type: binding
# study-conditions: read-out: pKi (converted)
Some molecules, each annotated with its measured Ki.

Find the recorded Ki belonging to CCCCn1cc(C(=O)N2CCCC2)c2ccccc21 [compound 11] and report it.
> 10 µM

Which Ki value belongs to O=C(c1cn(CC2CCCCC2)c2ccccc12)N1CCCC1 [compound 14] ?
> 10 µM

Given the entry CCN(CC)C(=O)c1cn(CCCCCF)c2ccccc12 [compound 9] , report its measured Ki.
> 10 µM

Which Ki reading was recorded for the molecule O=C(c1cn(CCCCCF)c2ccccc12)N1CCCCCC1 [compound 8] ?
> 10 µM

API: the following record is the query input.
Query: Ki; subject: O=C(c1cn(CCCCCF)c2ccccc12)N1CCCCC1 [compound 7]
> 10 µM

----------
# system-name: human CB2 (AtT20-CB2) (Homo sapiens)
# Construct: gene CNR2; full-length, stably transfected in mouse AtT20 cells
# assay: cell-based
# study-conditions: read-out: hCB2 Max (% CP 55,940)
Parameter: Emax. Scope: all listed entries.
Field: numeric (%). Do not append units.

// below: answered compounds
What does the data say about its Emax? Entry: `O=C(c1cn(CCCCCF)c2ccccc12)N1CCCCCC1`
72

# lookup: Emax of `CCCCCn1cc(C(=O)N2CCCC2)c2ccccc21`
54

I'd like to know its Emax. The compound in question is `CCCCn1cc(C(=O)N2CCCC2)c2ccccc21`
63

Next, consider the following compound.
Consider the compound `O=C(c1cn(CCCCCF)c2ccccc12)N1CCCCC1` and give its measured Emax.
64
